Sourced from patent US11186541B2

- target or test system: Recombinant maltose-binding protein-human aspartate N-acetyltransferase (MBP-ANAT) fusion enzyme (Homo sapiens)
- Construct: His tag (C); made in house; host or cells: E. coli NiCo21(DE3)
- Sequence (Q8N9F0 1-302): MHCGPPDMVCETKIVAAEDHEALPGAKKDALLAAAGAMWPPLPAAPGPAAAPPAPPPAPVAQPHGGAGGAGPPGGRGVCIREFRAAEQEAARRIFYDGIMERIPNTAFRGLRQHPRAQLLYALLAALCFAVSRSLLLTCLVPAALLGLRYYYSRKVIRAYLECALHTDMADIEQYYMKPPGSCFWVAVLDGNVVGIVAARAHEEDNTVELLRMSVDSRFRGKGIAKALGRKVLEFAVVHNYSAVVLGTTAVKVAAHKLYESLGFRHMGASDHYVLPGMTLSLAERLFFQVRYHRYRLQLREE
- assay procedure: ANAT activity, DTNB-based assay (inhibitor screening and kinetic evaluation)
- Type: biochemical
- test settings: read-out: inhibition constant against ANAT
pKi: −log10 of the molar value.
Examples of compounds with documented pKi follow.

Recorded pKi, per entry:
>>> print(df.to_string())
                                   compound  readout_name  meas_value
0               Cc1noc(-c2cccc(C(=O)O)c2)n1           pKi      < 2.70
1  O=C(O)CC[C@H](NC(=O)c1ccccc1)C(=O)O [N-benzoyl-L-glutamate]           pKi        3.89
2  O=C1CC[C@H](C(=O)O)N1 [2-D-pyroglutamic acid]           pKi      < 2.70
3                 O=C(O)c1cc(-c2ccccc2F)no1           pKi      < 2.70

Proceed to the following item.
For the compound shown here, O=C(O)C[C@H](NC(=O)c1ccccc1)C(=O)O [comparable L-aspartate derivative, sodium N-benzoyl-L-aspartate] , give the reported pKi.
< 2.70
